# assay.remarks: qHTS profiling of inhibitors of Plasmodium falciparum (DD2) proliferation (acoustic dispense)
# measurement.conditions: P. falciparum Dd2 in erythrocytes, SYBR Green DNA, 72 h; at 49.8 µM (top of the series) unless noted
The compounds listed here are annotated with their parasite growth, lower = inhibition.
# output: bare number, implied unit %

Task: Give the measured parasite growth, lower = inhibition of `CCc1nc(N)nc(N)c1-c1ccc(Cl)cc1` .
Output: 79.6

Task: Give the measured parasite growth, lower = inhibition of `CSc1cccc(Nc2ncc3cc(-c4c(Cl)cccc4Cl)c(=O)n(C)c3n2)c1` .
Output: 3.85

Task: Give the measured parasite growth, lower = inhibition of `COc1cc2nc(N3CCCN(C)CC3)nc(NC3CCN(Cc4ccccc4)CC3)c2cc1OC` .
Output: -0.574

Task: Give the measured parasite growth, lower = inhibition of `C=CCNC1=C2C[C@@H](C)C[C@H](OC)[C@@H](O)[C@@H](C)C=C(C)[C@H](OC(N)=O)[C@@H](OC)C=CC=C(C)C(=O)NC(=CC1=O)C2=O` .
Output: 0.49

Task: Give the measured parasite growth, lower = inhibition of `NC(=NCCCCCCN=C(N)N=C(N)Nc1ccc(Cl)cc1)N=C(N)Nc1ccc(Cl)cc1` .
Output: 3.29

---

# assay.remarks: qHTS profiling of inhibitors of Plasmodium falciparum (DD2) proliferation (acoustic dispense)
# measurement.conditions: P. falciparum Dd2 in erythrocytes, SYBR Green DNA, 72 h; at 49.8 µM (top of the series) unless noted
The molecules listed here are annotated with their parasite growth, lower = inhibition.
# output: bare number, implied unit %

molecule: C1CCC(C(CC2CCCCN2)C2CCCCC2)CC1 (stereo not drawn)
unit: %
endpoint.result: 0.0319

Task: Give the measured parasite growth, lower = inhibition of `CC(C=CC(=O)NO)=C[C@@H](C)C(=O)c1ccc(N(C)C)cc1` .
Output: -0.545

Task: Give the measured parasite growth, lower = inhibition of NC1CCC(Nc2nc(Nc3ccc(C(=O)N4CCCCC4)cc3)c3ncn(-c4cccc(F)c4)c3n2)CC1 (stereo not drawn) .
Output: -0.359

Task: Give the measured parasite growth, lower = inhibition of `CCOC(=O)[C@H](CCc1ccccc1)N[C@H]1CS[C@H](c2cccs2)CN(CC(=O)O)C1=O` .
Output: 61.3

Task: Give the measured parasite growth, lower = inhibition of CCN(CC)CCCC(C)Nc1ccnc2cc(Cl)ccc12 (stereo not drawn) .
Output: -0.356

Task: Give the measured parasite growth, lower = inhibition of `CO[C@H]1C=CC=C(C)C(=O)NC2=CC(=O)C(NCCN(C)C)=C(C[C@@H](C)C[C@H](OC)[C@@H](O)[C@@H](C)C=C(C)[C@@H]1OC(N)=O)C2=O` .
Output: -1.01

---

The compounds listed here are annotated with their parasite growth, lower = inhibition.
# assay.remarks: qHTS profiling of inhibitors of Plasmodium falciparum (DD2) proliferation (acoustic dispense)
# measurement.conditions: P. falciparum Dd2 in erythrocytes, SYBR Green DNA, 72 h; at 49.8 µM (top of the series) unless noted
# Description: Plasmodium falciparum is a virulent malarial parasite that kills 1-2 million people worldwide each year. […] Because mature erythrocytes lack DNA, only Plasmodium-derived DNA is detected. The SYBR Green viability assay was adapted from a method described previously (Plouffe et al., 2008). […] The following morning, fluorescence intensity at 485(14) nm excitation and 535(25) nm emission wavelengths was measured on an EnVision (Perkin Elmer) plate reader. […]

Would you please look over these solved cases?
compound: CCN(CC)Cc1cc(Nc2ccnc3cc(Cl)ccc23)ccc1O
parasite growth, lower = inhibition: 0.736% [at 23.2 µM]
--
compound: CCN(CC)CCNC(=O)c1c(C)[nH]c(C=C2C(=O)Nc3ccc(F)cc32)c1C
parasite growth, lower = inhibition: -0.534% [at 100 µM]
--
compound: CCCCN(CCCC)CCC(O)c1cc2c(Cl)cc(Cl)cc2c2cc(C(F)(F)F)ccc12 (stereo not given)
parasite growth, lower = inhibition: -0.281% [at 23.2 µM]
--
compound: Cc1cn(-c2cc(NC(=O)c3ccc(C)c(Nc4nccc(-c5cccnc5)n4)c3)cc(C(F)(F)F)c2)cn1
parasite growth, lower = inhibition: 7.6%
--
compound: O=C1NC(=O)C(=Cc2ccc3nccc(-c4ccncc4)c3c2)S1
parasite growth, lower = inhibition: 0.455%
--
compound: CC[C@H]1OC(=O)[C@H](C)C(=O)[C@H](C)[C@@H](O[C@H]2O[C@H](C)C[C@H](N(C)C)[C@@H]2O)[C@](C)(OC)C[C@@H](C)C(=O)[C@H](C)[C@H]2N(CCCCn3cnc(-c4cccnc4)c3)C(=O)O[C@]12C
parasite growth, lower = inhibition: 4.52%

Task: Give the measured parasite growth, lower = inhibition of `COc1cc2c(Oc3ccc(NC(=O)C4(C(=O)Nc5ccc(F)cc5)CC4)cc3F)ccnc2cc1OCCCN1CCOCC1` .
Output: 0.0003%

Task: Give the measured parasite growth, lower = inhibition of `C[C@@H](Oc1ccc2[nH]nc(C=Cc3cnn(CCO)c3)c2c1)c1c(Cl)cncc1Cl` .
Output: 1.14%

Task: Give the measured parasite growth, lower = inhibition of `Cc1cnc(Nc2ccc(CN3CCOCC3)cc2)nc1Nc1cccc(S(=O)(=O)NC(C)(C)C)c1` .
Output: 0.192%

Task: Give the measured parasite growth, lower = inhibition of `O[C@H](c1cc(C(F)(F)F)nc2c(C(F)(F)F)cccc12)[C@H]1CCCCN1` .
Output: 0.891% [at 23.2 µM]

All figures here come from PubChem BioAssay AID743365.
